// data source = PubChem BioAssay AID1745844

test system: rodent lifetime carcinogenesis bioassay, tumor incidence TD50; test: carcinogenic potency in animals, long-term in vivo studies, CPDB compilation (AID 1745844); settings: mouse; strain B6C3F1; females; inhaled; site: liver; lesion: hepatocellular carcinoma; dosed 104 weeks; study length 104 weeks
# Lookup of reported TD50 keyed by entry
Measure Name: TD50

| Smiles String | Value Observed |
| --- | --- |
| ClCCl | 2750 mg/kg/day |
| C=CC(=C)Cl | 15.2 mg/kg/day |

###

system: rodent lifetime carcinogenesis bioassay, tumor incidence TD50; experiment: carcinogenic potency in animals, long-term in vivo studies, CPDB compilation (AID 1745844); conditions: rat; strain Slc-Wistar; males; in feed; site: adrenal medulla; lesion: pheochromocytoma; dosed 57 weeks; study length 57 weeks
Measure Name: TD50 (mg/kg/day)

| Smiles String | Value Observed |
| --- | --- |
| C=C1CC[C@H](O)C/C1=C/C=C1\CCC[C@]2(C)[C@@H]([C@H](C)CC[C@@H](O)C(C)(C)O)CC[C@@H]12 | 0.803 |

###

system: rodent lifetime carcinogenesis bioassay, tumor incidence TD50; assay: carcinogenic potency in animals, long-term in vivo studies, CPDB compilation (AID 1745844); details: mouse; strain C57BL/6JfC3Hf/Nctr x BALB/cStCrlfC3Hf/Nctr inter se; females; in drinking water; site: liver; lesion: hepatocellular carcinoma; dosed 143 weeks; study length 143 weeks

| Smiles String | TD50 |
| --- | --- |
| Nc1ccc(-c2ccc(N)cc2)cc1 | 18.9 mg/kg/day |

###

# Lookup of reported TD50 keyed by entry
tested on: rodent lifetime carcinogenesis bioassay, tumor incidence TD50; experiment: carcinogenic potency in animals, long-term in vivo studies, CPDB compilation (AID 1745844); settings: mouse; strain Swiss; males; i.p.; site: liver; lesion: several types; types named in the paper; dosed 26 weeks; study length 78 weeks

| Smiles String | Study Target | TD50 / mg/kg/day |
| --- | --- | --- |
| CN(C)N=Nc1nc[nH]c1C(N)=O | rodent lifetime carcinogenesis bioassay, tumor incidence TD50 | 98.8 |
| O[C@@H]([C@H](O)[C@H](O)CBr)[C@H](O)CBr | rodent lifetime carcinogenesis bioassay, tumor incidence TD50 | 65.7 |

###

system: rodent lifetime carcinogenesis bioassay, tumor incidence TD50; assay: carcinogenic potency in animals, long-term in vivo studies, CPDB compilation (AID 1745844); details: rat; strain Fischer 344; males; in drinking water; site: liver; lesion: several types; types named in the paper; dosed 30 weeks; study length 100 weeks
Measure Name: TD50

| Smiles String | Measure Name | Value Observed |
| --- | --- | --- |
| CN=[N+](C)[O-] | TD50 | 0.0302 mg/kg/day |

###

system: rodent lifetime carcinogenesis bioassay, tumor incidence TD50; assay: carcinogenic potency in animals, long-term in vivo studies, CPDB compilation (AID 1745844); details: mouse; strain B6C3F1; males; in feed; site: thyroid gland; lesion: follicular-cell adenoma; dosed 101 weeks; study length 103 weeks
Measure Name: TD50

| Smiles String | Value Observed |
| --- | --- |
| CCC1(c2ccccc2)C(=O)NCNC1=O | 349 mg/kg/day |

###

system: rodent lifetime carcinogenesis bioassay, tumor incidence TD50; assay: carcinogenic potency in animals, long-term in vivo studies, CPDB compilation (AID 1745844); settings: mouse; strain C57BL/6; males; in feed; site: liver; lesion: hemangiosarcoma; dosed 52 weeks; study length 69 weeks
Calls of active or inactive are those of the source. The rule behind the calls is not given here.
Measure Name: TD50

| Smiles String | Value Observed |
| --- | --- |
| CCCCCC(N)=O | 25300 mg/kg/day (inactive) |

###

tested on: rodent lifetime carcinogenesis bioassay, tumor incidence TD50; assay: carcinogenic potency in animals, long-term in vivo studies, CPDB compilation (AID 1745844); conditions: rat; strain Sprague-Dawley; females; in feed; site: mammary gland; lesion: fibroadenoma; dosed 46 weeks; study length 66 weeks
The source made the active and inactive calls. How the calls were made is not given here.
Classes used: active, inactive

| Smiles String | Assigned Label |
| --- | --- |
| NC(=O)N/N=C/c1ccco1 | inactive |
| Cc1ncc([N+](=O)[O-])n1C | active |

###

test system: rodent lifetime carcinogenesis bioassay, tumor incidence TD50; experiment: carcinogenic potency in animals, long-term in vivo studies, CPDB compilation (AID 1745844); conditions: rat; strain Fischer 344; males; in feed; site: subcutaneous tissue; lesion: sarcoma; dosed 104 weeks; study length 105 weeks

| Smiles String | Readout Unit | TD50 |
| --- | --- | --- |
| OCC(CO)(CBr)CBr | mg/kg/day | 1550 |

###

tested on: rodent lifetime carcinogenesis bioassay, tumor incidence TD50; experiment: carcinogenic potency in animals, long-term in vivo studies, CPDB compilation (AID 1745844); conditions: mouse; strain B6C3F1; females; inhaled; site: liver; lesion: hepatocellular adenoma + hepatocellular carcinoma + neoplastic nodule; dosed 104 weeks; study length 107 weeks
Measure Name: TD50 (mg/kg/day)

| Smiles String | Value Observed |
| --- | --- |
| CNC[C@H](O)c1ccc(O)c(O)c1 | 9.74 |

###

test system: rodent lifetime carcinogenesis bioassay, tumor incidence TD50; assay: carcinogenic potency in animals, long-term in vivo studies, CPDB compilation (AID 1745844); conditions: rat; strain Sprague-Dawley; males; in drinking water; site: nervous system; lesion: one or several types; types not named; dosed 162 weeks; study length 167 weeks

| Smiles String | TD50 |
| --- | --- |
| O=NN(CCO)CCO | 42.5 mg/kg/day |

###

tested on: rodent lifetime carcinogenesis bioassay, tumor incidence TD50; experiment: carcinogenic potency in animals, long-term in vivo studies, CPDB compilation (AID 1745844); conditions: rat; strain Charles River CD (Sprague-Dawley); females; in feed; site: liver; lesion: hepatocellular adenoma; dosed 82 weeks; study length 82 weeks

| Smiles String | TD50 |
| --- | --- |
| Cc1cc(Cc2ccc(N)c(C)c2)ccc1N | 30.5 mg/kg/day |

###

system: rodent lifetime carcinogenesis bioassay, tumor incidence TD50; experiment: carcinogenic potency in animals, long-term in vivo studies, CPDB compilation (AID 1745844); settings: rat; strain F344/DuCrj; males; in feed; site: forestomach; lesion: several types; types named in the paper; dosed 104 weeks; study length 104 weeks
Measure Name: TD50

| Smiles String | Study Target | Measure Name | Value Observed |
| --- | --- | --- | --- |
| O=C(O)C=Cc1ccc(O)c(O)c1 | rodent lifetime carcinogenesis bioassay, tumor incidence TD50 | TD50 | 272 mg/kg/day |

###

tested on: rodent lifetime carcinogenesis bioassay, tumor incidence TD50; experiment: carcinogenic potency in animals, long-term in vivo studies, CPDB compilation (AID 1745844); details: monkey; strain Cynomolgus [Macaca fascicularis]; both sexes; in feed; site: lung; lesion: alveolar/bronchiolar carcinoma; dosed 258 weeks; study length 1513 weeks
Measure Name: TD50 (mg/kg/day)

| Smiles String | Study Target | Readout Unit | Value Observed |
| --- | --- | --- | --- |
| CC(=O)Nc1ccc2c(c1)Cc1cc(NC(C)=O)ccc1-2 | rodent lifetime carcinogenesis bioassay, tumor incidence TD50 | mg/kg/day | 25.6 |

###

system: rodent lifetime carcinogenesis bioassay, tumor incidence TD50; test: carcinogenic potency in animals, long-term in vivo studies, CPDB compilation (AID 1745844); conditions: rat; strain Fischer 344; females; in feed; site: liver + multiple organs + spleen; lesion: hepatocellular carcinoma + neoplastic nodule + mononuclear-cell leukemia; dosed 104 weeks; study length 105 weeks
Measure Name: TD50 (mg/kg/day)

| Compound | Readout Unit | Value Observed |
| --- | --- | --- |
| ClC1(Cl)C2(Cl)C3(Cl)C4(Cl)C(Cl)(Cl)C5(Cl)C3(Cl)C1(Cl)C5(Cl)C24Cl (stereo unspecified) | mg/kg/day | 3.34 |

###

tested on: rodent lifetime carcinogenesis bioassay, tumor incidence TD50; test: carcinogenic potency in animals, long-term in vivo studies, CPDB compilation (AID 1745844); details: rat; strain Charles River CD (Sprague-Dawley); females; in feed; site: mammary gland; lesion: carcinosarcoma; dosed 105 weeks; study length 105 weeks

| Smiles String | TD50 / mg/kg/day |
| --- | --- |
| CCNc1nc(Cl)nc(NC(C)(C)C#N)n1 | 140 |

###

test system: rodent lifetime carcinogenesis bioassay, tumor incidence TD50; assay: carcinogenic potency in animals, long-term in vivo studies, CPDB compilation (AID 1745844); settings: mouse; strain B6C3F1; males; by gavage; site: lung; lesion: adenoma; dosed 104 weeks; study length 104 weeks
Active and inactive are the calls of the source. No rule for the calls is given here.
Measure Name: TD50

| Smiles String | Study Target | Value Observed |
| --- | --- | --- |
| CCOC(=O)[C@H](CCc1ccccc1)N[C@@H](C)C(=O)N1Cc2ccccc2C[C@H]1C(=O)O | rodent lifetime carcinogenesis bioassay, tumor incidence TD50 | 2790 mg/kg/day (inactive) |
